- Tested on: CDK4-cyclinD3;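 also: KINOMEscan kinase panel screen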
- conditionSet: concentration: 1 μM, replicates: in singlicate; n = 1
Would you mind telling me the reported %Inh of each entry?
Numbers only; they are read as %.

Give its %Inh value. Item: Cc1cccc(-c2nc(C)cc(Nc3ccncc3)n2)n1 0

Cool, now Cl.O=C(Nc1cccc(-c2nn3ncccc3c2-c2ccnc(Nc3cccnc3)n2)c1)c1c(F)cccc1F 4

Cool, now Cc1cccc(-c2cc(Nc3ccncc3)c3ccccc3n2)n1 9

Cool, now CC(C)(C)c1ccc(C(=O)Nc2cn3cc(Cl)ccc3n2)cc1 0

Cool, now COc1ccc(Nc2nccc(-c3cccc(NC(=O)c4cc5cc(F)ccc5[nH]4)c3)n2)cc1 0

Cool, now COc1ccc(Nc2nccc(NCCNC(=O)Nc3ccccc3F)n2)cc1 9

Cool, now O=C(Nc1ccc2c(c1)OCO2)NC1CCN(c2ccnc(Nc3ccc(F)cc3)n2)C1 (stereo not drawn) 0

Cool, now Cc1ccc(-c2cc(-c3c[nH]nc3-c3ccccn3)ccn2)cc1 0

Cool, now Cn1ccc2ncnc(Oc3ccc(NC(=O)Nc4ccccc4)cc3)c21 0
